Where do these numbers come from? They come from the C3SDB collision cross section collection.

EXPERIMENTAL SETUP: [M-H]-; instrument: DT; single field, calibrated with Agilent tune mix (Agilent)
We begin with a simple list: items and their reported collision cross section (N2).
Answer in Å², number only, no unit symbol.

Sample records with collision cross section (N2):
CC(=O)N[C@@H](CC(=O)O)C(=O)O	129.21
C[C@H](CCC(=O)O)[C@H]1CC[C@H]2[C@@H]3[C@H](O)C[C@@H]4C[C@H](O)CC[C@]4(C)[C@H]3C[C@H](O)[C@]12C	200.72
NC[C@H](O)CC[C@H](N)C(=O)O [5-Hydroxy-L-lysine]	131.7

*Q* Field request: collision cross section (N2) | item: CSCC[C@H](NC=O)C(=O)O
*A* 134.09

*Q* Repeat with CC(C)CCC(=O)O
*A* 127.48

----------
Parameter: collision cross section (N2). Scope: all listed entries.
EXPERIMENTAL SETUP: [M+H-H2O]+; instrument: TW; calibrated with phosphatidylcholines (ESI+) and phosphatidylethanolamines (ESI-)
Use Å² as the unit, but write only the number.

CCCCC/C=C\C/C=C\CCCCCCCCCCCC(=O)O[C@@H](CO)COC(=O)CCCCCCCCCCCCC	263.5

*Q* Fill blank: measured collision cross section (N2) of the compound CCCCC/C=C\C/C=C\CCCCCCCC(=O)O[C@H](COC(=O)CCCCCCC/C=C\CCCCCCCC)COP(=O)(O)O[C@H]1C(O)C(O)C(O)[C@@H](OP(=O)(O)O)C1O (some centres undefined) is ____.
*A* 292.7

*Q* Another compound to check: CCCCCCCC/C=C\CCCCCCCC(=O)OC[C@H](COP(=O)(O)O[C@H]1C(O)C(O)C(O)[C@@H](OP(=O)(O)O)C1O)OC(=O)CCCCCCCCCCCCCCCCC (some centres undefined)
*A* 296.4

*Q* Now the compound CCCCC/C=C\C/C=C\C/C=C\C/C=C\CCCC(=O)O[C@H](COC(=O)CCCCCCCCCCCCCCCCC)COP(=O)(O)O[C@H]1C(O)C(O)C(O)[C@@H](OP(=O)(O)O)C1O (some centres undefined)
*A* 300.5

----------
EXPERIMENTAL SETUP: [M+H]+; instrument: TW; calibrated with polyalanine and drug standards
Form field: collision cross section (N2) (one value per entry).
Provide only the numeric value, understood in Å².

CC(=O)OCC(=O)[C@@]1(O)CC[C@H]2[C@@H]3CCC4=CC(=O)CC[C@]4(C)[C@H]3C(=O)C[C@@]21C [CORTISONE ACETATE]	196.5
S=c1ccss1	120.4

*Q* Give the measured collision cross section (N2) of COc1cc2c(cc1OC)C(C)NCC2 (configuration not stated) .
*A* 150.9

*Q* Another: CCN1CCN(c2cc3c(cc2F)c(=O)c(C(=O)O)cn3C2CC2)CC1
*A* 190.6

*Q* Entry Cc1noc(NS(=O)(=O)c2ccc(N)cc2)c1C please
*A* 159.1

*Q* For CCN(CC)C(=O)c1ccc(O)c(OC)c1 then?
*A* 149

*Q* Likewise for Oc1ccc(Cl)cc1 ?
*A* 108.8

*Q* // repeat for COc1ccc(-c2cc(C(F)F)nn2-c2ccc(S(N)(=O)=O)cc2)cc1F and report
*A* 189.9

*Q* Now this one: OC[C@@H]1CCCN2CCCC[C@H]12
*A* 135.3

*Q* For CC(=O)NS(=O)(=O)c1ccc(N)cc1 [SULFACETAMIDE] then?
*A* 146.9

*Q* Moving on to the next compound: Cn1c(=O)c2[nH]c(C3CCCC3)nc2n(C)c1=O
*A* 158.6
